Recorded normalized growth, one value per entry.
# Assay text: chemical genetic growth profiling, strain panel (AID 1159580);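 note: tested at 20 µM; growth read once vehicle control cultures reached saturation at 30 °C; 1 = growth at the plate median or of vehicle wells; lower values mean less growth of the strain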
# Condition details: S. cerevisiae deletion strains, growth OD, locus YGL173C, strain kem1, active compounds read low
Screen size: about 5,500 compounds; about 2,000 (36%) were called active. About 18% were inconclusive and are not listed. The list shows a part of the results.
# print the numeric value only

Compound	normalized growth
Cc1[nH]ccc2c1[nH]c1cc(=O)ccc12	1
C=C[C@H]1CN2CC[C@H]1C[C@@H]2[C@@H](OC(=O)OCC)c1ccnc2ccc(OC)cc12	1.01
COc1ccc(-c2cc(=O)c3c(O)cc(O[C@H]4O[C@H](CO[C@@H]5O[C@@H](C)[C@H](O)[C@@H](O)[C@H]5O)[C@@H](O)[C@H](O)[C@H]4O)cc3o2)cc1	1.02
C[C@]12CCC3c4ccc(O)cc4CCC3C1CC[C@@H]2O (stereo not given in full)	0.968
CCCC(C)(COC(N)=O)COC(=O)NC(C)C (stereo not given)	0.993

Exercise: Recorded normalized growth for CC(=O)O[C@@H]1CC2C(C)(C)C(=O)C=C[C@]2(C)C2CC[C@@]3(C)[C@H](c4ccoc4)OC(=O)[C@H]4O[C@]43[C@@]21C (stereo not given in full) , please?
Solution: 0.976

Exercise: Next record, please: CC1CC[C@]2(NC1)O[C@H]1CC3C4CC[C@H]5C[C@@H](O)CC[C@]5(C)C4CC[C@]3(C)[C@H]1[C@@H]2C (stereo not given in full)
Solution: 0.442

Exercise: Next record, please: CC(=O)[C@@]1(O)CCC2C3C[C@H](C)C4=CC(=O)C=CC4(C)[C@@]3(F)[C@@H](O)C[C@@]21C (stereo not given in full)
Solution: 0.976

Exercise: Next record, please: "COc1cc2occc2c2oc(=O)ccc12"
Solution: 1.01

Exercise: Next record, please: C[N+](C)(C)CC(O)CC(=O)O (stereo not given)
Solution: 0.968

Exercise: Next record, please: "COc1ccc(-c2oc3c(CC=C(C)C)c(O[C@@H]4O[C@H](CO)[C@@H](O)[C@H](O)[C@H]4O)cc(O)c3c(=O)c2O[C@@H]2O[C@@H](C)[C@H](O)[C@@H](O)[C@H]2O)cc1"
Solution: 1.05

Exercise: Next record, please: CNC(C)C(O)c1ccccc1 (stereo not given)
Solution: 1.01

Exercise: Next record, please: "C[C@@H]([C@H](O)c1ccccc1)N(C)C"
Solution: 1.01

Exercise: Next record, please: "O=c1c(O)c(-c2ccc(O)c(O)c2)oc2c(O)c(O)cc(O)c12"
Solution: 0.947

Exercise: Next record, please: NS(=O)(=O)c1cc(C2(O)NC(=O)c3ccccc32)ccc1Cl (stereo not given)
Solution: 0.968

Exercise: Next record, please: "CCCCOc1cc(C(=O)NCCN(CC)CC)c2ccccc2n1"
Solution: 0.966

Exercise: Next record, please: "CN1C[C@H](C(=O)N[C@]2(C)O[C@@]3(O)[C@@H]4CCCN4C(=O)[C@H](Cc4ccccc4)N3C2=O)C[C@@H]2c3cccc4[nH]cc(c34)C[C@H]21"
Solution: 0.993

Exercise: Next record, please: "CCOCN(C(=O)CCl)c1c(C)cccc1CC"
Solution: 0.976

Exercise: Next record, please: "COc1ccc2ccc(=O)oc2c1"
Solution: 1.02

Exercise: Next record, please: CC1(C)C=CC(=O)[C@@]2(C)C1CC(=O)[C@]1(C)C2CC[C@@]2(C)[C@H](c3ccoc3)OC(=O)C3OC321 (stereo not given in full)
Solution: 0.994

Exercise: Next record, please: "COc1cc(OC)c2ccc(=O)oc2c1"
Solution: 0.945
